- System: AMV RT
- EXPERIMENT: Single-nucleotide incorporation kinetics (quench-flow), AMV RT
- Type: biochemical, avian myeloblastosis virus
- CONDITIONS_USED: dATP at 150 µM, read-out: IC50, amplitude of single-nucleotide incorporation
ATTRIBUTE_MEASURED: IC50 (µM)
Answers are plain numbers, in µM.

Task: Supply measured IC50 of CCCCCCCCCCCCSC[C@H]1O[C@H](O[C@@H]2[C@@H](O)[C@H](O[C@H]3O[C@H](CN)[C@@H](O)C[C@H]3N)[C@@H](N)C[C@H]2N)[C@H](O)[C@@H](N)[C@@H]1O [TOB-C12] in your reply.
Result: 17

From: paper PMC7168264
